# Test system: Tetrahymena pyriformis
# procedureDetails: 48 h IGC50 (-log10 mol/L); higher = more toxic
Please respond with reported 48 h IGC50 (-log10 mol/L) for every item in the list.
Could you respond with only the numeric value?

[in] Record request: 48 h IGC50 (-log10 mol/L) value, item Cc1ccccc1O
[out] 2.71

[in] Record request: 48 h IGC50 (-log10 mol/L) value, item CC(C)COC(=O)C(C)C
[out] 2.41

[in] Record request: 48 h IGC50 (-log10 mol/L) value, item O=C(c1ccccc1)c1ccccc1O
[out] 4.23

[in] Record request: 48 h IGC50 (-log10 mol/L) value, item Sc1ccccc1
[out] 4.66

[in] Record request: 48 h IGC50 (-log10 mol/L) value, item CC(C)(C)OC=O
[out] 1.63

[in] Record request: 48 h IGC50 (-log10 mol/L) value, item CC(=O)CC(C)C
[out] 1.79

[in] Record request: 48 h IGC50 (-log10 mol/L) value, item O=C(c1ccccc1O)c1ccccc1O
[out] 4.16

[in] Record request: 48 h IGC50 (-log10 mol/L) value, item CC#CCO
[out] 2.13

[in] Record request: 48 h IGC50 (-log10 mol/L) value, item O=Cc1c(F)c(F)c(F)c(F)c1F
[out] 3.82

[in] Record request: 48 h IGC50 (-log10 mol/L) value, item CCCCCCCCCC=CCO
[out] 5.09

[in] Record request: 48 h IGC50 (-log10 mol/L) value, item C#CC(O)C(C)CCC (configuration not stated)
[out] 3.74

[in] Record request: 48 h IGC50 (-log10 mol/L) value, item COC(=O)c1ccc(C=O)cc1
[out] 3.3

[in] Record request: 48 h IGC50 (-log10 mol/L) value, item O=[N+]([O-])c1cc(Br)ccc1Br
[out] 4.37

[in] Record request: 48 h IGC50 (-log10 mol/L) value, item CCCCCC#CC(=O)O
[out] 2.94

[in] Record request: 48 h IGC50 (-log10 mol/L) value, item OCCCBr
[out] 2.07

[in] Record request: 48 h IGC50 (-log10 mol/L) value, item C/C=C(\C)C(=O)OC
[out] 2.38

[in] Record request: 48 h IGC50 (-log10 mol/L) value, item Oc1ccc(Cl)c(Cl)c1
[out] 4.75
